system: NCI-H23; assay: NCI tumour cell line growth inhibition, 48 h
Calls of active or inactive are those of the source. No stated cut-off is given here; in the data, active = GI50 up to about 1.1 µM and inactive = higher.
Give your call using only these classes: active, inactive

COc1nc2c(N3CCCC3)nc(N3CCNCC3)nc2nc1NCc1ccccc1; inactive
O=C1C2c3[nH]c4ccccc4c3[C@@H]3CCCCC3C2C(=O)N1c1ccccc1 (stereo partly specified); inactive
CCNC1CC(C(C)(C)NCC)CC=C1C (stereo unspecified); inactive

Task: Per the assay record, what outcome was assigned to CCNC(=S)N/N=C/c1ccccn1 ?
Output: inactive

Task: Would you mind doing FC(F)(F)c1ccc2c(c1)nc1n2C(c2c(Cl)cccc2Cl)SC1 (stereo unspecified) as well?
Output: inactive

Task: Would you mind doing CC1=NC(=O)CNN1C1=NNC2(C(=O)N1)c1ccccc1-c1ccccc12 as well?
Output: inactive

Task: Would you mind doing CCO[C@]12C[C@H](OC)[C@@]3(O)CC(C1[C@H]3OCc1ccccc1)C13C4C2[C@H](OC)C1[C@](COC)(CN4CC)[C@H](O)C[C@@H]3OC (stereo partly specified) as well?
Output: inactive

###

system: NCI-H460; assay: NCI tumour cell line growth inhibition, 48 h
The source made the active and inactive calls. Rule as the data show it: active = GI50 up to about 1.1 µM and inactive = higher.
RESULT TYPE: GI50

O=C1C=C2C(=CCOC2O)O1 (stereo not given) [PATULIN]; 1.16 µM (inactive)

Report GI50 for each item below.
1. COc1ccc(/C=C/c2cnc3ccccc3n2)cc1OC
2. CCc1nc2c(n1CC)C(=O)c1ccccc1C2=O
3. N#Cc1c(N2CCN(c3ccc([N+](=O)[O-])cc3)CC2)[n+]([O-])c2ccc(-c3ccc([N+](=O)[O-])cc3)cc2[n+]1[O-]
4. CN(CC(=O)O)c1ncc2c(n1)-c1ccccc1OC2c1ccccc1 (stereo not given)

Output:
1. 30.3 µM (inactive)
2. 39.1 µM (inactive)
3. 2.5 µM (inactive)
4. 89.7 µM (inactive)

###

tested on: UO-31; experiment: NCI tumour cell line growth inhibition, 48 h
Calls of active or inactive are those of the source. No stated cut-off is given here; in the data, active = GI50 up to about 1.1 µM and inactive = higher.
RESULT TYPE: GI50

Worked cases, GI50 given:
COc1ccc(-c2ncnc(-c3ccc(OC)c(OC)c3)n2)cc1OC; 91 µM (inactive)
COc1ccc2c(c1)-c1oc3ccccc3c(=O)c1CO2; 22.9 µM (inactive)
O=C(O[C@@H](/C=C/c1ccccc1)P1(=O)N(Cc2ccccc2)[C@@H]2CCCC[C@H]2N1Cc1ccccc1)c1ccccc1; 3.4 µM (inactive)

Report GI50 for each item below.
1. c1ccc(/N=C(\N2CCCCC2)N(CCN2CCCCC2)c2ccccc2)cc1
2. COc1c(CC(C)O)c2c3c(CC(C)O)c(OC)c(=O)c4c(O)cc5c(c6c(cc(O)c(c1=O)c62)OCO5)c43 (configuration not stated) [CERCOSPORIN]
3. O=C1O[C@H]2C3C4CCC(C4[C@@H]2I)[C@H]13 (some centres not stated)
4. CC1COS(=O)O1 (configuration not stated)
5. COC(=O)CC1(O)C(/C=C/c2ccccc2)C(C(=O)OC)C(=O)C(C(=O)OC)C1C(=O)OC (configuration not stated)
6. Clc1ccc(/N=C/c2cc3cc(Br)ccc3nc2Cl)cc1
7. CCNC(=S)N/N=C/c1ccccn1

Output:
["1.68 µM (inactive)", "2.14 µM (inactive)", "> 100 µM (inactive)", "> 100 µM (inactive)", "> 100 µM (inactive)", "36.8 µM (inactive)", "2.44 µM (inactive)"]

Report GI50 for each item below.
1. CN(C)NC(=O)/C(=C/c1ccc(Cl)cc1)NC(=O)c1ccccc1
2. Cc1c2cc[n+](C)cc2c(C)c2c1[nH]c1ccccc12
3. O=C1Nc2c(Cl)cc(Cl)cc2/C1=N/NC(=O)c1ccccc1O

Output:
["57.1 µM (inactive)", "8.65 µM (inactive)", "11.9 µM (inactive)"]

Report GI50 for each item below.
1. Cc1nc(N)nc(N)c1CCCCc1ccc(N)cc1
2. Cc1ccccc1NC(=O)CSc1nnc(Cc2ccccc2)o1
3. CC(C)(C)c1cc(C(=O)Nc2cc(Br)c(Br)cc2S(N)(=O)=O)cc(C(C)(C)C)c1O
4. COc1ccc([C@H]2CC(=O)NCCCCN2)cc1
5. N#CCc1nc(-c2ccccc2)n[nH]1

Output:
13.2 µM (inactive)
> 100 µM (inactive)
10.5 µM (inactive)
> 100 µM (inactive)
> 100 µM (inactive)

Report GI50 for each item below.
1. COC(=O)C1CC(C(=O)OC)c2nc3cc(C)ccc3nc21 (configuration not stated)
2. CN(C)CC1CCC/C(=C\c2ccccc2)C1=O (configuration not stated)
3. NS(=O)(=O)c1cc2c(cc1Cl)N=C(CCC(=O)O)NS2(=O)=O

Output:
1. > 100 µM (inactive)
2. 2.32 µM (inactive)
3. > 100 µM (inactive)

Task: What value of GI50 has been reported for the following molecule? COC(=O)C1=Cc2cc(OC)c(OC)cc2[C@H](c2ccc(OC)c(OC)c2)C1C(=O)OC (some centres not stated)
Output: > 100 µM (inactive)

These measurements were taken from ChEMBL document CHEMBL1201862.
